Kindly supply the reported pIC50 values for the records listed here.
target: UniProt P06935; experiment: Inhibition of C-terminal His6-tagged linked West Nile virus NS2B-NS3 protease domain expressed in Escherichia coli Bl21(DE3) preincubated for 15 mins followed by AbzGly-Leu-Lys-Arg-Gly-Gly-3-(NO2)Tyr substrate addition and measured for 15 mins by fluorescence method
Sequence (P06935 1371-1501 limits assumed): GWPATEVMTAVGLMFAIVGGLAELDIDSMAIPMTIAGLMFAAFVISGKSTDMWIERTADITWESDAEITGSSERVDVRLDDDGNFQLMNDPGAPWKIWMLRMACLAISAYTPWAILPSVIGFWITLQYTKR
Sequence (P06935 1502-2120 limits assumed): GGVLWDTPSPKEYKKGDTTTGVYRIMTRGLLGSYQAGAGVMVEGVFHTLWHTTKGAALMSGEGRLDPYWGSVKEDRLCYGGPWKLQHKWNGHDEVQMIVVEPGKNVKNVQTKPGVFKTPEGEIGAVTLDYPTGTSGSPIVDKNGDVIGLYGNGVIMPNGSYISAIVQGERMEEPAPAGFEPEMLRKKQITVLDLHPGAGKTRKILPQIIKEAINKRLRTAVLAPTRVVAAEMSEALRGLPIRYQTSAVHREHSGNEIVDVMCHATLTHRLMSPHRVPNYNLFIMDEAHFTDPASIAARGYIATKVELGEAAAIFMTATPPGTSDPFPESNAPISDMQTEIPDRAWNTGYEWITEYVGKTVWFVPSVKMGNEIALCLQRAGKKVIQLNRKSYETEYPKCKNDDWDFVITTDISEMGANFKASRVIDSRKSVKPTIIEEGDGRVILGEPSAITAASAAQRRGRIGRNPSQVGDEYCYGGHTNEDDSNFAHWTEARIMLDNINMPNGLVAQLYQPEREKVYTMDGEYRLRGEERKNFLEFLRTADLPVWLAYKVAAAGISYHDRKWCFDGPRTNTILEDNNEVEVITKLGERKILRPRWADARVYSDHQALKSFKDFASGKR
pIC50: −log10 of the molar value. Positions of bridges follow the written chain, without caps; N, C: chain ends. Non-standard residues stand in square brackets, D forms with d. Residues, ends and D or L forms follow the SMILES beside them. NMeY = CN[C@@H](Cc1ccc(O)cc1)C(=O)O; NMeF = CN[C@@H](Cc1ccccc1)C(=O)O; NMeS = CN[C@@H](CO)C(=O)O; Sar = CNCC(=O)O

Reference set (5 entries):
[[record]]
compound = "CC[C@H](C)[C@@H]1NC(=O)[C@H](C)NC(=O)[C@@H](Cc2ccc(O)cc2)NC(=O)CSC[C@@H](C(N)=O)NC(=O)[C@H](CC(N)=O)NC(=O)[C@H](CC(C)C)N(C)C(=O)[C@H](Cc2ccc(O)cc2)NC(=O)[C@H](CCCCN)NC(=O)[C@H](CC(N)=O)NC(=O)[C@H](Cc2ccc(O)cc2)NC(=O)[C@H](Cc2ccc(OC)cc2)N(C)C(=O)[C@H]([C@@H](C)CC)NC1=O"
readout_value = "< 4.70"

[[record]]
compound = "CC[C@H](C)[C@@H]1NC(=O)[C@H](CC(N)=O)NC(=O)[C@H](C(C)C)NC(=O)[C@H](CC(C)C)NC(=O)[C@H]([C@@H](C)O)NC(=O)[C@H](CC(N)=O)NC(=O)[C@H](Cc2ccc(OC)cc2)N(C)C(=O)[C@H]([C@@H](C)CC)NC(=O)[C@H](CCCCN)NC(=O)[C@H](Cc2c[nH]c3ccccc23)NC(=O)[C@H](Cc2ccc(O)cc2)NC(=O)CSC[C@@H](C(N)=O)NC1=O ({CH2CO}-YWKI[NMeY](Me)NTLVNIC-NH2; thioether N-12)"
readout_value = "< 5.00"

[[record]]
compound = "COc1ccc(C[C@H]2C(=O)N[C@@H](Cc3ccccc3)C(=O)N[C@H](C(N)=O)CSCC(=O)N[C@@H](Cc3ccc(O)cc3)C(=O)N[C@@H]([C@@H](C)O)C(=O)N[C@@H](CC(N)=O)C(=O)N[C@@H](Cc3ccccc3)C(=O)N[C@@H](Cc3ccc(O)cc3)C(=O)N[C@@H](CC(C)C)C(=O)N[C@@H](Cc3ccc(O)cc3)C(=O)N3CCC[C@H]3C(=O)N[C@@H](Cc3ccc(O)cc3)C(=O)N2C)cc1 ({CH2CO}-YTNFYLYPY[NMeY](Me)FC-NH2; thioether N-12)"
readout_value = "< 4.70"

[[record]]
compound = "CC[C@H](C)[C@@H]1NC(=O)CN(C)C(=O)[C@H](Cc2ccc(O)cc2)NC(=O)CSC[C@@H](C(N)=O)NC(=O)[C@@H]2CCCN2C(=O)[C@H]([C@@H](C)CC)NC(=O)[C@H](Cc2ccc(OC)cc2)N(C)C(=O)[C@H](Cc2ccc(OC)cc2)N(C)C(=O)[C@H](CC(N)=O)NC(=O)[C@H](Cc2ccc(O)cc2)NC(=O)[C@H](CCCCN)NC(=O)[C@H](C)NC1=O ({CH2CO}-Y[Sar]IAKYN[NMeY](Me)[NMeY](Me)IPC-NH2; thioether N-12)"
readout_value = "≤ 4.70"

[[record]]
compound = "CC(C)C[C@@H]1NC(=O)[C@H]([C@@H](C)O)NC(=O)[C@H](Cc2ccc(O)cc2)NC(=O)CSC[C@@H](C(N)=O)NC(=O)[C@H](Cc2ccccc2)NC(=O)[C@H](Cc2ccccc2)NC(=O)[C@H]([C@@H](C)O)NC(=O)CN(C)C(=O)[C@H](CC(N)=O)NC(=O)[C@H](Cc2cnc[nH]2)NC(=O)[C@H](Cc2ccccc2)NC(=O)[C@@H]2CCCN2C1=O ({CH2CO}-YTLPFHN[Sar]TFFC-NH2; thioether N-12)"
readout_value = "< 4.70"


Okay, next one:
Given the entry COc1ccc(C[C@H]2C(=O)N[C@@H](CCCCN)C(=O)N(C)[C@@H](Cc3ccccc3)C(=O)N[C@@H](CCCCN)C(=O)N(C)[C@@H](CO)C(=O)N(C)[C@@H](Cc3ccc(OC)cc3)C(=O)N[C@@H](CCCCN)C(=O)N(C)[C@@H](Cc3ccc(OC)cc3)C(=O)N(C)[C@@H](Cc3ccc(OC)cc3)C(=O)N[C@@H](CCCCN)C(=O)N[C@H](C(N)=O)CSCC(=O)N[C@@H](Cc3ccc(O)cc3)C(=O)N2C)cc1 ({CH2CO}-Y[NMeY](Me)K[NMeF]K[NMeS][NMeY](Me)K[NMeY](Me)[NMeY](Me)KC-NH2; thioether N-12) , report its measured pIC50.
5.41

---

Kindly supply the reported IC50 values for the records listed here.
molecular target: Nonstructural protein 3 (Zika virus, UniProt A0A024AXB9); assay: Inhibition of C-terminal His6-tagged linked Zika virus NS2B-NS3 protease domain expressed in Escherichia coli Bl21(DE3) using Bz-Nle-Lys-Lys-Arg-AMC as substrate after 30 mins by fluorophotometric method
Sequence (A0A024AXB9 whole entry, the tested form may be a part): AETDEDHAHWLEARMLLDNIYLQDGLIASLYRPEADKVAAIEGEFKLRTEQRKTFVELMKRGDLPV
Positions of bridges follow the written chain, without caps; N, C: chain ends. Non-standard residues stand in square brackets, D forms with d. Residues, ends and D or L forms follow the SMILES beside them. NMeY = CN[C@@H](Cc1ccc(O)cc1)C(=O)O; Sar = CNCC(=O)O
Answers are plain numbers, in µM.

Reference set (3 entries):
[[record]]
compound = "COc1ccc(C[C@H]2C(=O)N[C@@H](Cc3ccccc3)C(=O)N[C@H](C(N)=O)CSCC(=O)N[C@@H](Cc3ccc(O)cc3)C(=O)N[C@@H]([C@@H](C)O)C(=O)N[C@@H](CC(N)=O)C(=O)N[C@@H](Cc3ccccc3)C(=O)N[C@@H](Cc3ccc(O)cc3)C(=O)N[C@@H](CC(C)C)C(=O)N[C@@H](Cc3ccc(O)cc3)C(=O)N3CCC[C@H]3C(=O)N[C@@H](Cc3ccc(O)cc3)C(=O)N2C)cc1 ({CH2CO}-YTNFYLYPY[NMeY](Me)FC-NH2; thioether N-12)"
target_of_assay = "Nonstructural protein 3 (Zika virus, UniProt A0A024AXB9)"
experimental_endpoint = "IC50"
units_symbol = "µM"
readout_value = 3.3

[[record]]
compound = "CC[C@H](C)[C@@H]1NC(=O)[C@H](C)NC(=O)[C@@H](Cc2ccc(O)cc2)NC(=O)CSC[C@@H](C(N)=O)NC(=O)[C@H](CC(N)=O)NC(=O)[C@H](CC(C)C)N(C)C(=O)[C@H](Cc2ccc(O)cc2)NC(=O)[C@H](CCCCN)NC(=O)[C@H](CC(N)=O)NC(=O)[C@H](Cc2ccc(O)cc2)NC(=O)[C@H](Cc2ccc(OC)cc2)N(C)C(=O)[C@H]([C@@H](C)CC)NC1=O"
target_of_assay = "Nonstructural protein 3 (Zika virus, UniProt A0A024AXB9)"
experimental_endpoint = "IC50"
units_symbol = "µM"
readout_value = 7.1

[[record]]
compound = "CC[C@H](C)[C@@H]1NC(=O)[C@H](CC(N)=O)NC(=O)[C@H](C(C)C)NC(=O)[C@H](CC(C)C)NC(=O)[C@H]([C@@H](C)O)NC(=O)[C@H](CC(N)=O)NC(=O)[C@H](Cc2ccc(OC)cc2)N(C)C(=O)[C@H]([C@@H](C)CC)NC(=O)[C@H](CCCCN)NC(=O)[C@H](Cc2c[nH]c3ccccc23)NC(=O)[C@H](Cc2ccc(O)cc2)NC(=O)CSC[C@@H](C(N)=O)NC1=O ({CH2CO}-YWKI[NMeY](Me)NTLVNIC-NH2; thioether N-12)"
target_of_assay = "Nonstructural protein 3 (Zika virus, UniProt A0A024AXB9)"
experimental_endpoint = "IC50"
units_symbol = "µM"
readout_value = 1.32


Okay, next one:
Test system Nonstructural protein 3 (Zika virus, UniProt A0A024AXB9); read-out IC50; what value for CC[C@H](C)[C@@H]1NC(=O)CN(C)C(=O)[C@H](Cc2ccc(O)cc2)NC(=O)CSC[C@@H](C(N)=O)NC(=O)[C@@H]2CCCN2C(=O)[C@H]([C@@H](C)CC)NC(=O)[C@H](Cc2ccc(OC)cc2)N(C)C(=O)[C@H](Cc2ccc(OC)cc2)N(C)C(=O)[C@H](CC(N)=O)NC(=O)[C@H](Cc2ccc(O)cc2)NC(=O)[C@H](CCCCN)NC(=O)[C@H](C)NC1=O ({CH2CO}-Y[Sar]IAKYN[NMeY](Me)[NMeY](Me)IPC-NH2; thioether N-12) ?
16.5

---

Kindly supply the reported pIC50 values for the records listed here.
molecular target: UniProtKB A0A024AXB9; assay: Inhibition of C-terminal His6-tagged unlinked Zika virus NS2B-NS3 protease domain expressed in Escherichia coli Bl21(DE3) using Bz-Nle-Lys-Lys-Arg-AMC as substrate after 30 mins by fluorophotometric method
Positions of bridges follow the written chain, without caps; N, C: chain ends. Non-standard residues stand in square brackets, D forms with d. Residues, ends and D or L forms follow the SMILES beside them. NMeY = CN[C@@H](Cc1ccc(O)cc1)C(=O)O
Numbers only, as −log10 of the molar value.

Reference set (2 entries):
[[record]]
molecule = "CC[C@H](C)[C@@H]1NC(=O)[C@H](CC(N)=O)NC(=O)[C@H](C(C)C)NC(=O)[C@H](CC(C)C)NC(=O)[C@H]([C@@H](C)O)NC(=O)[C@H](CC(N)=O)NC(=O)[C@H](Cc2ccc(OC)cc2)N(C)C(=O)[C@H]([C@@H](C)CC)NC(=O)[C@H](CCCCN)NC(=O)[C@H](Cc2c[nH]c3ccccc23)NC(=O)[C@H](Cc2ccc(O)cc2)NC(=O)CSC[C@@H](C(N)=O)NC1=O ({CH2CO}-YWKI[NMeY](Me)NTLVNIC-NH2; thioether N-12)"
readout_value = 5.82

[[record]]
molecule = "COc1ccc(C[C@H]2C(=O)N[C@@H](Cc3ccccc3)C(=O)N[C@H](C(N)=O)CSCC(=O)N[C@@H](Cc3ccc(O)cc3)C(=O)N[C@@H]([C@@H](C)O)C(=O)N[C@@H](CC(N)=O)C(=O)N[C@@H](Cc3ccccc3)C(=O)N[C@@H](Cc3ccc(O)cc3)C(=O)N[C@@H](CC(C)C)C(=O)N[C@@H](Cc3ccc(O)cc3)C(=O)N3CCC[C@H]3C(=O)N[C@@H](Cc3ccc(O)cc3)C(=O)N2C)cc1 ({CH2CO}-YTNFYLYPY[NMeY](Me)FC-NH2; thioether N-12)"
readout_value = 5.66


Okay, next one:
Given the entry "CC[C@H](C)[C@@H]1NC(=O)[C@H](C)NC(=O)[C@@H](Cc2ccc(O)cc2)NC(=O)CSC[C@@H](C(N)=O)NC(=O)[C@H](CC(N)=O)NC(=O)[C@H](CC(C)C)N(C)C(=O)[C@H](Cc2ccc(O)cc2)NC(=O)[C@H](CCCCN)NC(=O)[C@H](CC(N)=O)NC(=O)[C@H](Cc2ccc(O)cc2)NC(=O)[C@H](Cc2ccc(OC)cc2)N(C)C(=O)[C@H]([C@@H](C)CC)NC1=O" , report its measured pIC50.
5.49
